Values from the supplement of paper PMC4862054

# Test system: CAL-120
# assay: normalised viability (% of control), CellTiter-Blue; higher = more viable cells (about 100 = DMSO control)
# measurement.parameters: 100 nM; incubation time: 72 h
test.readout: normalised viability (%)
Return type: number; implicit unit %.

>>> recorded_result("C#Cc1cccc(Nc2ncnc3cc(OC)c(OCCCCCCC(=O)NO)cc23)c1")
67.1
>>> recorded_result("COc1c(C)cnc(Cn2cnc3c(Cl)nc(N)nc32)c1C")
27.6

Report normalised viability, nothing else, for this compound: "COC1=C2C[C@@H](C)C[C@H](OC)[C@H](O)[C@@H](C)/C=C(\C)[C@H](OC(N)=O)[C@@H](OC)/C=C\C=C(/C)C(=O)NC(=CC1=O)C2=O"
25.1

Report normalised viability, nothing else, for this compound: "COC1=CC(c2cc3ccccc3[nH]2)=N/C1=C\c1[nH]c(C)cc1C"
25.9

Report normalised viability, nothing else, for this compound: "COc1cc(Nc2ncc(F)c(Nc3ccc4c(n3)NC(=O)C(C)(C)O4)n2)cc(OC)c1OC"
90.8

====

# Test system: CAL-85-1
# assay: normalised viability (% of control), CellTiter-Blue; higher = more viable cells (about 100 = DMSO control)
# measurement.parameters: 100 nM; incubation time: 72 h
test.readout: normalised viability (%)
Return type: number; implicit unit %.

Solved cases (2 shown):
>>> recorded_result("O=P(O)(NCCCl)NCCCl [Ifosfamide mustard]")
99.1
>>> recorded_result("COc1cc(Nc2ncc(F)c(Nc3ccc4c(n3)NC(=O)C(C)(C)O4)n2)cc(OC)c1OC [R406]")
97.5

Report normalised viability, nothing else, for this molecule: COC(=O)C[C@](O)(CCCC(C)(C)O)C(=O)O[C@@H]1C(OC)=C[C@]23CCCN2CCc2cc4c(cc2[C@H]13)OCO4 [Omacetaxine mepesuccinate]
9.04

Report normalised viability, nothing else, for this molecule: c1ccc(C2CN3CCSC3=N2)cc1 (stereo not given) [Tetramisole]
99.4

Report normalised viability, nothing else, for this molecule: O=c1[nH]cc(F)c(=O)[nH]1 [Fluorouracil]
115

====

# System: CAL-120
# assay: normalised viability (% of control), CellTiter-Blue; higher = more viable cells (about 100 = DMSO control)
# measurement.parameters: 10 nM; incubation time: 72 h
test.readout: normalised viability (%)
Return type: number; implicit unit %.

>>> recorded_result("CCOc1cc2ncc(C#N)c(Nc3ccc(OCc4ccccn4)c(Cl)c3)c2cc1NC(=O)/C=C/CN(C)C")
84.9
>>> recorded_result("COc1cccc2c1C(=O)c1c(O)c3c(c(O)c1C2=O)C[C@@](O)(C(C)=O)C[C@@H]3O[C@H]1C[C@H](N)[C@H](O)[C@H](C)O1")
79
>>> recorded_result("CCS(=O)(=O)c1cccc(-c2cc(C(=O)NC3CCN(C)CC3)c(C)c3[nH]c4ncc(C)cc4c23)c1")
86.8
>>> recorded_result("CC(C)(C)c1cc(NC(=O)Nc2ccc(-c3cn4c(n3)sc3cc(OCCN5CCOCC5)ccc34)cc2)no1")
94.4

Lab note: next compound to report on.
Report normalised viability, nothing else, for this compound: "Cn1cnc2c(F)c(Nc3ccc(Br)cc3F)c(C(=O)NOCCO)cc21"
92.2

====

# System: MDA-MB-436
# assay: normalised viability (% of control), CellTiter-Blue; higher = more viable cells (about 100 = DMSO control)
# measurement.parameters: 1000 nM; incubation time: 72 h
test.readout: normalised viability (%)
Return type: number; implicit unit %.

Solved cases (4 shown):
>>> recorded_result("O=c1[nH]c(=O)n([C@H]2C[C@H](O)[C@@H](CO)O2)cc1F")
62.5
>>> recorded_result("Cn1c(=O)c(F)c(Nc2ccc(I)cc2F)c2c(=O)n(C[C@@H](O)CO)cnc21")
88.9
>>> recorded_result("C#Cc1cccc(Nc2ncnc3cc(OC)c(OCCCCCCC(=O)NO)cc23)c1")
53.9
>>> recorded_result("CCCC(CCC)C(=O)O")
89

Report normalised viability, nothing else, for this molecule: "COC1=C2C[C@@H](C)C[C@H](OC)[C@H](O)[C@@H](C)/C=C(\C)[C@H](OC(N)=O)[C@@H](OC)/C=C\C=C(/C)C(=O)NC(=CC1=O)C2=O"
15.7

Report normalised viability, nothing else, for this molecule: "CC(C)(C)c1cc(NC(=O)Nc2ccc(-c3cn4c(n3)sc3cc(OCCN5CCOCC5)ccc34)cc2)no1"
87.6

Report normalised viability, nothing else, for this molecule: "COc1cc(Nc2ncc(F)c(Nc3ccc4c(n3)NC(=O)C(C)(C)O4)n2)cc(OC)c1OC"
102

Report normalised viability, nothing else, for this molecule: c1ccc(C2CN3CCSC3=N2)cc1 (centres undefined)
111

Report normalised viability, nothing else, for this molecule: O=P(O)(NCCCl)NCCCl [Ifosfamide mustard]
73.3

====

Entries and their normalised response
# System: BT-549
# assay: normalised response (% of control), CellTiter-Glo; higher = more viable cells (100 = DMSO, 0 = benzethonium chloride kill control)
# measurement.parameters: incubation time: 72 h

Solved cases (3 shown):
>>> recorded_result("CS(=O)(=O)CCNCc1ccc(-c2ccc3ncnc(Nc4ccc(OCc5cccc(F)c5)c(Cl)c4)c3c2)o1 [Lapatinib] (1 nM)")
"95.4%"
>>> recorded_result("COC(=O)C[C@](O)(CCCC(C)(C)O)C(=O)O[C@@H]1C(OC)=C[C@]23CCCN2CCc2cc4c(cc2[C@H]13)OCO4 [Omacetaxine] (1000 nM)")
"7.92%"
>>> recorded_result("CC(=O)O[C@H]1C(=O)[C@@]2(C)[C@H]([C@H](OC(=O)c3ccccc3)[C@]3(O)C[C@H](OC(=O)[C@H](O)[C@@H](NC(=O)c4ccccc4)c4ccccc4)C(C)=C1C3(C)C)[C@]1(OC(C)=O)CO[C@@H]1C[C@@H]2O [Paclitaxel] (0.1 nM)")
"100%"

Enter recorded normalised response with BT-549 for COc1cccc2c1C(=O)c1c(O)c3c(c(O)c1C2=O)C[C@@](O)(C(C)=O)C[C@@H]3O[C@H]1C[C@H](N)[C@H](O)[C@H](C)O1 [Daunorubicin] (100 nM) here.
68.9%

Enter recorded normalised response with BT-549 for COc1cc(Nc2ncc(F)c(Nc3ccc4c(n3)NC(=O)C(C)(C)O4)n2)cc(OC)c1OC [Tamatinib] (1 nM) here.
101%

Enter recorded normalised response with BT-549 for C#Cc1cccc(Nc2ncnc3cc(OC)c(OCCCCCCC(=O)NO)cc23)c1 [CUDC-101] (10 nM) here.
101%

====

# System: BT-549
# assay: normalised response (% of control), CellTiter-Glo; higher = more viable cells (100 = DMSO, 0 = benzethonium chloride kill control)
# measurement.parameters: incubation time: 72 h
test.readout: normalised response (%)
Return type: number; implicit unit %.

>>> recorded_result("Cn1cnc2c(F)c(Nc3ccc(Br)cc3F)c(C(=O)NOCCO)cc21 [MEK-162] (10 nM)")
94.5
>>> recorded_result("COC(=O)C[C@](O)(CCCC(C)(C)O)C(=O)O[C@@H]1C(OC)=C[C@]23CCCN2CCc2cc4c(cc2[C@H]13)OCO4 [Omacetaxine] (100 nM)")
18.8

Enter recorded normalised response with BT-549 for CN(c1ccccc1CNc1nc(Nc2ccc3c(c2)CC(=O)N3)ncc1C(F)(F)F)S(C)(=O)=O (100 nM) here.
97.9

Enter recorded normalised response with BT-549 for CC(=O)O[C@H]1C(=O)[C@@]2(C)[C@H]([C@H](OC(=O)c3ccccc3)[C@]3(O)C[C@H](OC(=O)[C@H](O)[C@@H](NC(=O)c4ccccc4)c4ccccc4)C(C)=C1C3(C)C)[C@]1(OC(C)=O)CO[C@@H]1C[C@@H]2O [Paclitaxel] (10 nM) here.
34

====

# Test system: MDA-MB-436
# assay: normalised viability (% of control), CellTiter-Blue; higher = more viable cells (about 100 = DMSO control)
# measurement.parameters: 100 nM; incubation time: 72 h
Entries and their normalised viability
Return type: number; implicit unit %.

Solved cases (3 shown):
>>> recorded_result("COc1ccc(C2=N[C@@H](c3ccc(Cl)cc3)[C@@H](c3ccc(Cl)cc3)N2C(=O)N2CCNC(=O)C2)c(OC(C)C)c1 [Nutlin-3]")
97.9
>>> recorded_result("O=C(c1ccc(OCCN2CCCCC2)cc1)c1c(-c2ccc(O)cc2)sc2cc(O)ccc12 [Raloxifene]")
107
>>> recorded_result("O=P(O)(NCCCl)NCCCl [Ifosfamide mustard]")
98.3

Lab note: next molecule to report on.
Report normalised viability, nothing else, for this molecule: c1ccc(C2CN3CCSC3=N2)cc1 (centres undefined) [Tetramisole]
108

====

# Test system: SK-BR-3
# assay: normalised response (% of control), CellTiter-Glo; higher = more viable cells (100 = DMSO, 0 = benzethonium chloride kill control)
# measurement.parameters: incubation time: 72 h
Entries and their normalised response
Return type: number; implicit unit %.

Solved cases (4 shown):
>>> recorded_result("C[C@@H]1CCN(C(=O)CC#N)C[C@@H]1N(C)c1ncnc2[nH]ccc12 [Tofacitinib] (0.5 nM)")
113
>>> recorded_result("CS(=O)(=O)CCNCc1ccc(-c2ccc3ncnc(Nc4ccc(OCc5cccc(F)c5)c(Cl)c4)c3c2)o1 [Lapatinib] (1 nM)")
116
>>> recorded_result("COc1cccc2c1C(=O)c1c(O)c3c(c(O)c1C2=O)C[C@@](O)(C(C)=O)C[C@@H]3O[C@H]1C[C@H](N)[C@H](O)[C@H](C)O1 [Daunorubicin] (0.1 nM)")
101
>>> recorded_result("C#Cc1cccc(Nc2ncnc3cc(OC)c(OCCCCCCC(=O)NO)cc23)c1 [CUDC-101] (1 nM)")
90.8

Report normalised response, nothing else, for this compound: COc1cc(Nc2ncc(F)c(Nc3ccc4c(n3)NC(=O)C(C)(C)O4)n2)cc(OC)c1OC [Tamatinib] (10 nM)
100

Report normalised response, nothing else, for this compound: CS(=O)(=O)OCCCCOS(C)(=O)=O [Busulfan] (100 nM)
97.5
